# METHOD: binders of probe aFST on microarray, primary screen, stem cell growth factor project, biochemical, small-molecule microarray, fluorescence 635/667 (AID 1086);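 further: score merges 667 nm fluorescence with signal-to-noise of each printed compound spot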
# CONDITION SUMMARY: higher = more signal
Quick rule: composite z-score of at least 0.4 means True, below that means False.

CC(=O)NCCCC[C@@H]1NC(=O)[C@@H]2C[C@H](C(=O)NCCCCN(C)C)[C@H](c3ccc(O)cc3)N2C1=O : False
COCC1=C2[C@@H](CCc3ccccc3)OB(O)C[C@@H]2[C@@H]2C(=O)N(Cc3ccccc3)C(=O)[C@@H]2C1 : False
CCCCC=C[C@@H](NC(=O)c1ccco1)c1ccccc1 : False
CC(C)N1CC=CC23O[C@@H]4C=CCOC(=O)[C@@H]4[C@H]2C(=O)N(CCO)[C@@H]3C1=O (some centres undefined) : False
[N-]=[N+]=NCc1ccccc1C[C@]1(C(=O)NCC(O)CO)N=C(c2ccc(OCCCO)cc2)O[C@H]1c1ccccc1N=[N+]=[N-] (some centres undefined) : True

Input: Given COCCOC(=O)N1C(=O)[C@@]2(c3cc(C#CC4=CCCCC4)ccc31)[C@H](C(=O)NC[C@H](O)c1ccccc1)[C@H]1C(=O)O[C@H](c3ccccc3)[C@H](c3ccccc3)N1[C@@H]2c1ccc(O)cc1 , state whether its composite z-score is at least 0.4.
Output: False

Input: Given CCOC(=O)C1=CCC(C(C)(C)C)N(S(=O)(=O)c2ccc(C)cc2)C1 (centres undefined) , state whether its composite z-score is at least 0.4.
Output: True

Input: Given C=CCNC(=O)[C@@H]1[C@H]2C(=O)O[C@H](c3ccccc3)[C@H](c3ccccc3)N2[C@H](c2ccc(OCCO)cc2)[C@@]12C(=O)Nc1ccccc12 , state whether its composite z-score is at least 0.4.
Output: True

Input: Given COCCOC(=O)N1C(=O)[C@@]2(c3cc(C#CCCO)ccc31)[C@H](C(=O)NC[C@H](O)c1ccccc1)[C@H]1C(=O)O[C@H](c3ccccc3)[C@H](c3ccccc3)N1[C@@H]2c1ccc(O)cc1 , state whether its composite z-score is at least 0.4.
Output: False

Input: Given O=C1C2C=CC(C(O)c3ccc(B(O)O)cc3)N(Nc3ccccc3)C2C(=O)N1c1ccccc1 (centres undefined) , state whether its composite z-score is at least 0.4.
Output: False

Input: Given O=C1O[C@H](c2ccccc2)[C@H](c2ccccc2)N2[C@H]1[C@@H](C(=O)O)[C@]1(C(=O)Nc3ccc(C#CC4=CCCCC4)cc31)[C@H]2c1ccc(OCCO)cc1 , state whether its composite z-score is at least 0.4.
Output: True

Input: Given CCCCCN1CC=CC23O[C@@H]4/C=C\CCC(C)OC(=O)C4[C@H]2C(=O)N(CCCCCO)[C@@H]3C1=O (some centres undefined) , state whether its composite z-score is at least 0.4.
Output: False

Input: Given COc1ccc(C#Cc2ccc3c(c2)[C@]2(C(=O)N3)[C@H](C(=O)NC[C@H](O)c3ccccc3)[C@H]3C(=O)O[C@H](c4ccccc4)[C@H](c4ccccc4)N3[C@@H]2c2ccccc2OCCO)cc1 , state whether its composite z-score is at least 0.4.
Output: True

* * *

The compounds listed here are annotated with their z-score.
# METHOD: PSAC antagonists in infected red cells, primary screen, cell-based, P. falciparum Indochina, OD700, 2 h (AID 1155);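 further: lysis reports solute entry through the parasite surface anion channel PSAC; channel blockers reduce lysis of infected cells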
# CONDITION SUMMARY: P. falciparum Indochina infected erythrocytes, osmotic lysis OD700; higher = more signal, called active from +8 up or from −8 down
Lab note: record just the number, no unit beside it.

COCCOC(=O)N1C(=O)[C@@]2(c3cc(C#CC4=CCCCC4)ccc31)[C@H](C(=O)N1CCc3cc(OC)c(OC)cc3C1)[C@H]1C(=O)O[C@H](c3ccccc3)[C@H](c3ccccc3)N1[C@@H]2c1ccccc1OCCO : 0.876
C=C[C@@H](COC(C)=O)N(Cc1ccccc1[N+](=O)[O-])S(=O)(=O)c1ccc(Br)cc1 : -0.407
C=CC[C@]1(C(=O)N2CCOCC2)N=C(c2ccc(OCCCO)cc2)O[C@H]1c1ccccc1 : 1.09

Input: Please give the documented z-score of O=C1O[C@@H](c2ccccc2)[C@@H](c2ccccc2)N2[C@@H](c3ccccc3OCCO)[C@]3(C(=O)Nc4ccc(C#CC5(O)CCCCCC5)cc43)[C@@H](C(=O)Nc3nc4ccccc4s3)[C@H]12
Output: 3.75

* * *

# Tested on: XIP peptide (Xip251-270)
# METHOD: small-molecule binders of XIP peptide, primary screen, biochemical, small-molecule microarray, fluorescence 635/667 nm, 0.5 µg/mL protein (AID 1183)
# CONDITION SUMMARY: small-molecule microarray binding, fluorescence 635 nm; higher = more signal
Quick rule: composite z-score of at least 0.6 means T, below that means F.

O=c1cccc(C=Cc2ccccc2)o1 : F
COCCOC(=O)N1C(=O)[C@@]2(c3cc(C#CC4=CCCCC4)ccc31)[C@H](C(=O)NC[C@H](O)c1ccccc1)[C@H]1C(=O)O[C@H](c3ccccc3)[C@H](c3ccccc3)N1[C@@H]2c1ccc(O)cc1 : T
Cc1ccccc1C(O)C1C=CC2C(=O)N(C)C(=O)C2N1N1CCCCC1 (centres undefined) : F
CCCNC(=O)[C@@]1(c2ccc([N+](=O)[O-])cc2)CC(=O)N(CC23CC4CC(CC(C4)C2)C3)[C@@H]1c1ccc(CO)cc1 : F

Input: Given O=C1O[C@@H](c2ccccc2)[C@@H](c2ccccc2)N2[C@@H](c3ccc(O)cc3)[C@]3(C(=O)Nc4ccc(C#CC5(O)CCCCCC5)cc43)[C@@H](C(=O)N3CCCCCCC3)[C@H]12 , state whether its composite z-score is at least 0.6.
Output: T

Input: Given CC(C)C(=C=CC[C@H](O)c1cccc(OCCO)c1)C[C@H](O)COCc1ccccc1 , state whether its composite z-score is at least 0.6.
Output: F

Input: Given CCCCCN1CC=CC23O[C@@H]4C=CCOC(=O)[C@@H]4[C@H]2C(=O)N(CCCO)[C@@H]3C1=O (some centres undefined) , state whether its composite z-score is at least 0.6.
Output: T

Input: Given O=c1oc(-c2ccccc2)nc2cc(Br)ccc12 , state whether its composite z-score is at least 0.6.
Output: F

Input: Given C=CCNC(=O)[C@H]1[C@@H]2C(=O)O[C@@H](c3ccccc3)[C@@H](c3ccccc3)N2[C@@H](c2ccc(O)cc2)[C@]12C(=O)N(C(=O)OCCOC)c1ccc(C#CCCO)cc12 , state whether its composite z-score is at least 0.6.
Output: T

Input: Given CC(C)c1ccc(NN2C(C(O)c3c(F)cccc3Cl)C=CC3C(=O)N(c4ccccc4)C(=O)C32)cc1 (centres undefined) , state whether its composite z-score is at least 0.6.
Output: T

Input: Given CC(C)Cc1ccc(CN2CC[C@@H](NS(=O)(=O)c3ccccc3)C2)cc1 , state whether its composite z-score is at least 0.6.
Output: F

* * *

# METHOD: E. coli acrAB mutant growth effects, primary screen, E. coli filamentation inducers, strain DRC39, OD650, 48 h (AID 1179);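 further: screen aims at cell division blockers that make cells filament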
# CONDITION SUMMARY: E. coli DRC39 delta-acrAB growth, higher = more signal, called active from +8 up or from −8 down
PROPERTY NAME: z-score
Lab note: record just the number, no unit beside it.

Input: Please give the documented z-score of COc1c(C)cc(-c2cc3c(c(-c4ccc(Oc5ccccc5)cc4)n2)[Si](C(C)C)(C(C)C)OC3)cc1C
Output: -0.707

Input: Please give the documented z-score of COC(=O)[C@@]1(Cc2ccccc2)[C@H]2c3cc(C(=O)N4CCCC4)n(C)c3C[C@H]2CN1C(=O)c1ccccc1
Output: -0.0676

Input: Please give the documented z-score of [N-]=[N+]=Nc1ccccc1[C@H]1OC(c2ccc(OCCCO)cc2)=N[C@@]1(CCS(=O)(=O)c1ccccc1)C(=O)O
Output: 0.499

Input: Please give the documented z-score of CCCC[C@H]1OB(O)C[C@H]2C1=C(C)C[C@H]1C(=O)N(Cc3ccccc3)C(=O)[C@H]12
Output: 0.452

* * *

# METHOD: anti-His antibody binders, primary screen, artefact control for SMM control protein annotation, biochemical, small-molecule microarray, 635 nm fluorescence (AID 1128);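 further: score merges feature fluorescence with signal-to-noise for each printed compound spot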
# CONDITION SUMMARY: anti-His Alexa647 antibody binding, higher = more signal
Quick rule: composite z-score of at least 0.5 means MET, below that means NOT MET.

Some solved cases for reference:
COC(=O)[C@@]1(Cc2ccccc2)[C@H]2c3cc(C(=O)N4CCCC4)n(Cc4ccc(C)o4)c3C[C@H]2CN1C(=O)c1ccccc1 : NOT MET
COc1ccc(C#Cc2ccc3c(c2)[C@]2(C(=O)N3)[C@H](c3ccc(O)cc3)N3[C@H](c4ccccc4)[C@H](c4ccccc4)OC(=O)[C@H]3[C@@H]2C(=O)N2CCCCCCC2)cc1 : NOT MET
COc1ccc(CCNC(=O)[C@@]2(Sc3ccc(C)cc3)CC(=O)N(Cc3ccccc3Cl)[C@@H]2c2ccc(CO)cc2I)cc1 : MET

Input: Given NCCCCCNC(=O)[C@H]1C[C@H]2C(=O)NCC(=O)N2[C@H]1c1cccc(OCCO)c1 , state whether its composite z-score is at least 0.5.
Output: MET

Input: Given O=c1cccc(CCc2ccccc2)o1 , state whether its composite z-score is at least 0.5.
Output: MET

Input: Given O=C1OCCC/C=C\[C@H]2OC34C=CCN(Cn5nnc6ccccc65)C(=O)[C@H]3N(CCCCCO)C(=O)[C@@H]4C12 (stereo not given in full) , state whether its composite z-score is at least 0.5.
Output: NOT MET

Input: Given CC(=O)C1=CCC(c2ccccc2)N(S(=O)(=O)c2ccc(C)cc2)C1 (stereo not given) , state whether its composite z-score is at least 0.5.
Output: MET

Input: Given CN1C=C(C(=O)OCCS(C)(=O)=O)C(C(=O)OCCS(C)(=O)=O)=CC(CCCO)=CC1C1CC1 (stereo not given) , state whether its composite z-score is at least 0.5.
Output: NOT MET

Input: Given COC(=O)[C@@]1(Cc2ccc(OC)cc2)[C@H]2c3cc(C(=O)N4CCCC4)n(Cc4cc(F)cc5c4OCOC5)c3C[C@H]2CN1C(=O)c1ccccc1 , state whether its composite z-score is at least 0.5.
Output: NOT MET

Input: Given COc1ccc(C#Cc2ccc3c(c2)[C@]2(C(=O)N3)[C@H](c3ccc(O)cc3)N3[C@H](c4ccccc4)[C@H](c4ccccc4)OC(=O)[C@H]3[C@@H]2C(=O)NC[C@H](O)c2ccccc2)cc1 , state whether its composite z-score is at least 0.5.
Output: MET

Input: Given CC1=C2[C@@H](CCc3ccccc3)OB(O)C[C@@H]2n2c(=O)n(-c3ccccc3)c(=O)n2C1 , state whether its composite z-score is at least 0.5.
Output: NOT MET

Input: Given COCCOC(=O)N1C(=O)[C@@]2(c3cc(C#CCC(C(=O)OC)C(=O)OC)ccc31)[C@H](c1ccccc1OCCO)N1[C@H](c3ccccc3)[C@H](c3ccccc3)OC(=O)[C@H]1[C@@H]2C(=O)N1CCc2cc(OC)c(OC)cc2C1 , state whether its composite z-score is at least 0.5.
Output: MET

Input: Given Cc1ccc(S[C@]2(C(=O)O)CC(=O)N(C3Cc4ccccc4C3)[C@@H]2c2ccc(CO)cc2I)cc1 , state whether its composite z-score is at least 0.5.
Output: NOT MET

Input: Given CCCCCCCCCCC(O)C1C=CC2C(=O)N(Cc3ccccc3)C(=O)C2N1n1cnnc1 (stereo not given) , state whether its composite z-score is at least 0.5.
Output: NOT MET

Input: Given C#CCN(C(/C=C/c1ccccc1)CO)C(C(=O)O)c1ccccc1 (stereo not given) , state whether its composite z-score is at least 0.5.
Output: NOT MET
